- measurement_description: in vivo
- condition_description: Sprague-Dawley, rat, po, 10 mg/kg
value_type: Cmax
Lab note: write values as number then unit, every time.

Exercise: In one line, give reported Cmax of the entry `CCc1cccc2c1C[C@@H]1CNCCN1C2=O` .
Key: 3.62 µM

* * *

- measurement_description: in vivo
- condition_description: Sprague-Dawley, rat, brain/plasma, po, 10 mg/kg
value_type: Kp
Please state the value as a number alone, without comment.

Exercise: In one line, give reported Kp of the entry `CCc1cccc2c1C[C@@H]1CNCCN1C2=O` .
Key: 3.9

* * *

- measurement_description: in vivo
- condition_description: Sprague-Dawley, rat, po, 10 mg/kg
value_type: AUC(0-t) at 4 h (µM·h)
Lab book: enter the figure in µM·h, no units written.

Exercise: In one line, give reported AUC(0-t) at 4 h of the entry `CCc1cccc2c1C[C@@H]1CNCCN1C2=O` .
Key: 9.64
